Reference source for all entries: the supplement of paper PMC5908809

percent inhibition of viability values for the molecules below.
tested on: YT (IL-2 2.5 ng/mL); test: percent inhibition of viability; higher = more inhibition; conditions: 72 h; 1 nM
measurement_kind: percent inhibition of viability (%)

O=C(O)c1ccc2c(c1)nc(Nc1cccc(Cl)c1)c1ccncc12 [Silmitasertib] (max concentration tested 10000 nM)	5.21
NC(=O)c1cccc2cn(-c3ccc([C@@H]4CCCNC4)cc3)nc12 [Niraparib] (max concentration tested 10000 nM)	-0.31
COc1cc2nccc(Oc3ccc(NC(=O)C4(C(=O)Nc5ccc(F)cc5)CC4)cc3)c2cc1OC [Cabozantinib] (max concentration tested 1000 nM)	-0.81
Cc1c(NC(=O)OC[C@@H]2COCCN2)cn2ncnc(Nc3ccc4c(cnn4Cc4cccc(F)c4)c3)c12 (max concentration tested 10000 nM)	2.59
CN1CCN(CCOc2cc(OC3CCOCC3)c3c(Nc4c(Cl)ccc5c4OCO5)ncnc3c2)CC1 [Saracatinib] (max concentration tested 10000 nM)	-2.96
O=C(CCBr)N1CCN(C(=O)CCBr)CC1 [Pipobroman] (max concentration tested 10000 nM)	-7.45

###

percent inhibition of viability values for the molecules below.
tested on: normal NK cells expanded with K562-aAPC; assay: percent inhibition of viability; higher = more inhibition; details: 72 h; IL-2 2.5 ng/mL; 100 nM
measurement_kind: percent inhibition of viability

O=C(c1cc(Cc2n[nH]c(=O)c3ccccc23)ccc1F)N1CCN(C(=O)C2CC2)CC1 [Olaparib] (max concentration tested 10000 nM)	5.47%
CC(C)C[C@H](NC(=O)[C@@H](COC(C)(C)C)NC(=O)[C@H](Cc1ccc(O)cc1)NC(=O)[C@H](CO)NC(=O)[C@H](Cc1c[nH]c2ccccc12)NC(=O)[C@H](Cc1cnc[nH]1)NC(=O)[C@@H]1CCC(=O)N1)C(=O)N[C@@H](CCCNC(=N)N)C(=O)N1CCC[C@H]1C(=O)NNC(N)=O [Goserelin] (max concentration tested 10000 nM)	-10.9%
Cc1c(NC(=O)OC[C@@H]2COCCN2)cn2ncnc(Nc3ccc4c(cnn4Cc4cccc(F)c4)c3)c12 (max concentration tested 10000 nM)	-2.01%
COc1cc2ncnc(Oc3cccc(NC(=O)Nc4cc(C(C)(C)C(F)(F)F)on4)c3)c2cc1OC (max concentration tested 10000 nM)	-2.54%
c1ccc([C@H]2CN3CCSC3=N2)cc1 [Levamisole] (max concentration tested 10000 nM)	-5.79%

###

tested on: normal primary NK cells, pool 2 (3 donors) (IL-2 2.5 ng/mL); test: percent inhibition of viability; higher = more inhibition; conditions: 72 h; 1 nM
measurement_kind: percent inhibition of viability (%)

Cc1c(Cn2c(C)nc3c(C(=O)O)cc(N4CCOCC4)cc32)cccc1C(F)(F)F (max concentration tested 10000 nM)	-11.1
C[C@@H]1COC(Nc2ccc3ncnc(Nc4ccc(OCc5nccs5)c(Cl)c4)c3c2)=N1 [Varlitinib] (max concentration tested 10000 nM)	-7.11
CCN(c1cc(-c2ccc(CN3CCOCC3)cc2)cc(C(=O)NCc2c(C)cc(C)[nH]c2=O)c1C)C1CCOCC1 [Tazemetostat] (max concentration tested 10000 nM)	-7.19
CO[C@H]1/C=C\C=C(/C)C(=O)NC2=CC(=O)C(NCCN(C)C)=C(C[C@@H](C)C[C@H](OC)[C@H](O)[C@@H](C)/C=C(\C)[C@@H]1OC(N)=O)C2=O [Alvespimycin] (max concentration tested 1000 nM)	-3.64
Cc1nc(N)sc1-c1ccnc(Nc2ccc(N3CCOCC3)cc2)n1 [CYC-116] (max concentration tested 10000 nM)	-11.2
CN1CCc2c(c3ccccc3n2Cc2ccc(C(=O)NO)cc2)C1 [Tubastatin A] (max concentration tested 10000 nM)	-2.86
CN(C)C[C@@H]1CCn2cc(c3ccccc32)C2=C(C(=O)NC2=O)c2cn(c3ccccc23)CCO1 [Ruboxistaurin] (max concentration tested 10000 nM)	-17.6
CC(=O)Nc1ccc(C(=O)Nc2ccccc2N)cc1 [Tacedinaline] (max concentration tested 1000 nM)	13
CN(C)/N=N/c1[nH]cnc1C(N)=O [Dacarbazine] (max concentration tested 10000 nM)	-10.3
CO[C@H]1C[C@@H]2CC[C@@H](C)[C@@](O)(O2)C(=O)C(=O)N2CCCC[C@H]2C(=O)O[C@H]([C@H](C)C[C@@H]2CC[C@@H](O)[C@H](OC)C2)CC(=O)[C@H](C)/C=C(\C)[C@@H](O)[C@@H](OC)C(=O)[C@H](C)C[C@H](C)/C=C/C=C/C=C/1C [Sirolimus] (max concentration tested 100 nM)	15.3
O=C(NC1CCNCC1)c1n[nH]cc1NC(=O)c1c(Cl)cccc1Cl [AT7519] (max concentration tested 10000 nM)	-5.51
COc1cc2c(Oc3ccc(NC(=O)C4(C(=O)Nc5ccc(F)cc5)CC4)cc3F)ccnc2cc1OCCCN1CCOCC1 [Foretinib] (max concentration tested 1000 nM)	-4.47
Cc1nc(C(=O)NCC(=O)O)c(O)c2ccc(Oc3ccccc3)cc12 [FG-4592] (max concentration tested 10000 nM)	-11.8
N[C@@H]1CCCN(c2c(/C=C3\SC(=O)NC3=O)cccc2-c2ccccc2)C1 [AZD1208] (max concentration tested 10000 nM)	-5.92
C#Cc1cccc(Nc2ncnc3cc(OCCOC)c(OCCOC)cc23)c1 [Erlotinib] (max concentration tested 10000 nM)	-6.62
C[C@@H](Oc1ccc2[nH]nc(/C=C/c3cnn(CCO)c3)c2c1)c1c(Cl)cncc1Cl (max concentration tested 1000 nM)	-5.79
CC(C)N(CCCNC(=O)Nc1ccc(C(C)(C)C)cc1)C[C@H]1O[C@@H](n2cc(Br)c3c(N)ncnc32)[C@H](O)[C@@H]1O [SGC0946] (max concentration tested 10000 nM)	-1.67
COc1ccc(-c2ccc3c(N4CCOC[C@@H]4C)nc(N4CCOC[C@@H]4C)nc3n2)cc1CO [AZD8055] (max concentration tested 10000 nM)	-5.63
